# target: WT STING (Homo sapiens, UniProt Q86WV6, H232R)
# Sequence (Q86WV6 whole entry H232R): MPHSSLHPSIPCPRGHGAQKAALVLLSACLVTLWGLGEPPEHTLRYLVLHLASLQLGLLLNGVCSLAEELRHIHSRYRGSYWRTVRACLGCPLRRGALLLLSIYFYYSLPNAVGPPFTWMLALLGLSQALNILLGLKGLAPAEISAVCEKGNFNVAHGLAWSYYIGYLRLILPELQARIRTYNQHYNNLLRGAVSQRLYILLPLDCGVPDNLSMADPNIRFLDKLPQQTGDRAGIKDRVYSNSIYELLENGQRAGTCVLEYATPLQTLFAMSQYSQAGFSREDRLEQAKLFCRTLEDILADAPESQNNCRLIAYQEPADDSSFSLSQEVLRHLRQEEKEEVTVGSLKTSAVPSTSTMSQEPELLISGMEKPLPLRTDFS
# experiment.summary: 293T WT STING standard reporter assay
# Type: cell-based
# experimental.context: 293T wtSTING-FL cells; 7 hours with compound, no digitonin; ISRE firefly luciferase reporter
pEC50: −log10 of the molar value.
property.measured: pEC50

CC(C)(C)C(=O)OCOP1(=O)/C=C/[C@H]2O[C@@H](n3cnc4c(N)ncnc43)C[C@@H]2OP(=O)(OCOC(=O)C(C)(C)C)OC[C@H]2O[C@@H](n3cnc4c(N)ncnc43)[C@H](F)[C@@H]2O1 (single isomer, unassigned) [Compound 87c]
6.59
CCC(C)(C)C(=O)OCOP1(=O)/C=C/[C@H]2O[C@@H](n3cnc4c(N)ncnc43)[C@H](F)[C@@H]2OP(=O)(OCOC(=O)C(C)(C)CC)OC[C@H]2O[C@@H](n3cnc4c(N)ncnc43)[C@H](F)[C@@H]2O1 (single isomer, unassigned) [Compound 84a]
6.82

[1] CC(C)(C)C(=O)OCOP1(=O)/C=C/[C@H]2O[C@@H](n3cnc4c(N)ncnc43)[C@H](F)[C@@H]2OP(=O)(OCOC(=O)C(C)(C)C)OC[C@H]2O[C@@H](n3cnc4c(N)ncnc43)C[C@@H]2O1 (stereo partly shown) [Compound 86]
[2] CC(C)(C)C(=O)OCOP1(=O)/C=C/[C@H]2O[C@@H](n3cnc4c(N)ncnc43)[C@H](F)[C@@H]2OP(=O)(OCOC(=O)C(C)(C)C)OC[C@H]2O[C@@H](n3cnc4c(N)ncnc43)[C@H](F)[C@@H]2O1 (single isomer, unassigned) [Compound 80b]
Q: Determine, for 1 and 2 , which has the greater value of pEC50. Your choice should be expressed through its label.
Result: 1
(1: 8.00, 2: 7.66)

###

# target: WT STING (Homo sapiens, UniProt Q86WV6, H232R)
# experiment.summary: 293T WT STING standard reporter assay
# Assay type: cell-based
# experimental.context: 293T wtSTING-FL cells; 7 hours with compound, no digitonin; ISRE firefly luciferase reporter
pEC50: −log10 of the molar value.
property.measured: pEC50

Nc1ncnc2c1ncn2[C@@H]1O[C@@H]2/C=C/P(=O)(O)O[C@H]3C[C@H](n4cnc5c(N)ncnc54)O[C@@H]3COP(=O)(O)O[C@H]2[C@H]1F
4.14
CCCCCCCC(=O)OCOP1(=O)/C=C/[C@H]2O[C@@H](n3cnc4c(N)ncnc43)[C@H](F)[C@@H]2OP(=O)(OCOC(=O)CCCCCCC)OC[C@H]2O[C@@H](n3cnc4c(N)ncnc43)[C@H](F)[C@@H]2O1 (single isomer, unassigned) [Compound 83b]
8.52
CC1(C(=O)OCOP2(=O)/C=C/[C@H]3O[C@@H](n4cnc5c(N)ncnc54)[C@H](F)[C@@H]3OP(=O)(OCOC(=O)C3(C)CCCCC3)OC[C@H]3O[C@@H](n4cnc5c(N)ncnc54)[C@H](F)[C@@H]3O2)CCCCC1 (single isomer, unassigned) [Compound 82b]
7.10
CC(C)(C)C(=O)OCOP1(=O)/C=C/[C@H]2O[C@@H](n3cnc4c(N)ncnc43)[C@H](F)[C@@H]2OP(=O)(OCOC(=O)C(C)(C)C)OC[C@H]2O[C@@H](n3cnc4c(N)ncnc43)[C@H](F)[C@@H]2O1 (single isomer, unassigned) [Compound 80a]
7.08
CCCCCCCC(=O)OCOP1(=O)/C=C/[C@H]2O[C@@H](n3cnc4c(N)ncnc43)[C@H](F)[C@@H]2OP(=O)(OCOC(=O)CCCCCCC)OC[C@H]2O[C@@H](n3cnc4c(N)ncnc43)[C@H](F)[C@@H]2O1 (single isomer, unassigned) [Compound 83c]
8.52
Nc1nc2c(ncn2[C@@H]2O[C@@H]3COP(=O)(O)O[C@@H]4[C@H](O)[C@@H](COP(=O)(O)O[C@@H]2[C@@H]3O)O[C@H]4n2cnc3c(N)ncnc32)c(=O)[nH]1 [2′2′-cGAMP, reference compound]
4.99

[P] CC(C)(C)C(=O)OCOP1(=O)/C=C/[C@H]2O[C@@H](n3cnc4c(N)ncnc43)C[C@@H]2OP(=O)(OCOC(=O)C(C)(C)C)OC[C@H]2O[C@@H](n3cnc4c(N)ncnc43)[C@H](F)[C@@H]2O1 (single isomer, unassigned) [Compound 87b]
[Q] CCC(C)(C)C(=O)OCOP1(=O)/C=C/[C@H]2O[C@@H](n3cnc4c(N)ncnc43)[C@H](F)[C@@H]2OP(=O)(OCOC(=O)C(C)(C)CC)OC[C@H]2O[C@@H](n3cnc4c(N)ncnc43)[C@H](F)[C@@H]2O1 (single isomer, unassigned) [Compound 84c]
Q: Which entry shows the lesser value of pEC50 here, P or Q ? Your choice should be expressed through its label.
Result: P
(P: 6.17, Q: 8.15)
